The entries below pair compounds with Ki values for Adenosine receptor A1 (Rattus norvegicus, UniProt P25099), as found in several publications.

The examples below pair each entry with its known result.
CCCCC#Cc1nc(N)c2ncn(C3O[C@H](CNC(=O)NC)[C@@H](O)[C@H]3O)c2n1 (some centres undefined)    > 472 nM
Cc1ncccc1CN1CCN(c2nc(N)n3nc(-c4ccco4)nc3n2)CC1    > 500 nM

*Q* Please report Ki with Adenosine receptor A1 (Rattus norvegicus, UniProt P25099) for item `Nc1nc(N2CCN(Cc3cccc(Cl)c3)CC2)nc2nc(-c3ccco3)nn12` .
*A* > 500 nM

*Q* Please report Ki with Adenosine receptor A1 (Rattus norvegicus, UniProt P25099) for item `O=C(CCCc1ccccc1)Nc1nc2ccc(Br)cc2c(=O)s1` .
*A* > 10000 nM

----------
The entries below pair compounds with Ki values for Adenosine receptor A1 (Rattus norvegicus, UniProt P25099), as found in several publications.
Biological target: Adenosine receptor A1 (Rattus norvegicus, UniProt P25099)
Sequence (P25099 whole entry): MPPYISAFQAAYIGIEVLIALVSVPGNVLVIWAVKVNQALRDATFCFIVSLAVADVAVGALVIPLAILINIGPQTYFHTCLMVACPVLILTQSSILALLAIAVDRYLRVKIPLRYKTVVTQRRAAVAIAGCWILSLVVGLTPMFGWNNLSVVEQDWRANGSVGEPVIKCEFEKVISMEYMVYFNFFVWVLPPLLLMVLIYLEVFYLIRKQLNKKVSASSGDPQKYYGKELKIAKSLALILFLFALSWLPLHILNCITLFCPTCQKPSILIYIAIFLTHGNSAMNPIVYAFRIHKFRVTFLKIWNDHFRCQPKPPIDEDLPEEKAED
measured.quantity: Ki (nM)

The examples below pair each entry with its known result.
CCCCn1c(=O)c2c(nc3n2CCCN3CCc2ccc(OCC(=O)NCc3cccc(OC)c3)cc2)n(CCCC)c1=O    1590
CCCn1c(=O)[nH]c2[nH]c(-c3ccc(S(=O)(=O)Oc4cccc([N+](=O)[O-])c4)cc3)nc2c1=O    6.5
OC[C@H]1OC(n2cnc3c(NN4CCCCC4)nc(I)nc32)[C@H](O)[C@@H]1O (some centres not stated)    71
OC[C@H]1O[C@@H](n2cnc3c(NC4CCc5cc(O)ccc54)ncnc32)[C@H](O)[C@@H]1O (some centres not stated)    42.3
OC[C@@H]1OC(n2cnc3c2N=CN2C[C@@H](Cc4ccccc4)N=C32)[C@@H](O)[C@H]1O (some centres not stated)    2230

a = Cn1c(=O)[nH]c2cc[nH]c2c1=O
b = Cn1c(=O)c2c(nc(C3CCC3)n2C)n(C)c1=O
*Q* Hi, I'm comparing two records. Which one has the lower Ki, a or b ? Provide the label of your selected option as the answer.
*A* a
(a: 2900 nM, b: 30000 nM)

a = CSc1nc(NC(=O)C(c2ccccc2)c2ccccc2)n2nc(-c3ccco3)nc2n1
b = CC[C@H]1CN2C(=O)N(C)c3nc(/C=C/c4ccccc4)n(C)c3C2=N1
*Q* Which record would sort first by descending Ki, a or b ? Provide the label of your selected option as the answer.
*A* b

----------
The entries below pair molecules with pKi values for Adenosine receptor A1 (Rattus norvegicus), as found in several publications.
Biological target: Adenosine receptor A1 (Rattus norvegicus)
Sequence (P25099 whole entry): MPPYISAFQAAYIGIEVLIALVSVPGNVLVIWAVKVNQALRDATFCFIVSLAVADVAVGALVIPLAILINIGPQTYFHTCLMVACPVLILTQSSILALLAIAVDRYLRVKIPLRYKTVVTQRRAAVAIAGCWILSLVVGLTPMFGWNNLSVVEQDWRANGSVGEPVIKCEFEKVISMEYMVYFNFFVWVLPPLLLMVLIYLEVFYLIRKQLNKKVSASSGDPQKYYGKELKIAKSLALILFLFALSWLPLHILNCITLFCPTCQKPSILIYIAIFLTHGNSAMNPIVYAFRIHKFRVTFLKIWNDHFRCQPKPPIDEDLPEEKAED
pKi: −log10 of the molar value.
measured.quantity: pKi

The examples below pair each entry with its known result.
Nc1nc(SCCC2OCCO2)nc2c1ncn2[C@@H]1O[C@H](CO)[C@@H](O)[C@H]1O    5.94
Cc1c(C)n([C@@H](C)c2ccccc2)c2nc(-c3ccc(Cl)c(Cl)c3)nc(N)c12    5.74

1 = O=C(Nc1nc(-c2ccccc2)nc2c1nnn2Cc1ccccc1)c1cccc([N+](=O)[O-])c1
2 = Cc1[nH]c2nc(-c3ccc(Cl)cc3)nc(N)c2c1C
3 = CC[C@H]1CN2C(=O)N(C)c3nc(-c4ccccc4)n(C)c3C2=N1
4 = C[C@H]1N=C2c3ncn(C4O[C@@H](CO)[C@H](O)[C@@H]4O)c3N=CN2[C@@H]1c1ccccc1 (some centres undefined)
*Q* Please produce an ascending ranking of these molecules based on pKi. Thanks in advance for listing the labels in the requested order.
*A* 4, 3, 2, 1
(4: 4.90, 3: 5.33, 2: 5.91, 1: 7.11)
